target: MMP-13 catalytic domain (MMP-13CD) (Homo sapiens); construct: The catalytic domain of the MMP-13 enzyme, namely matrix metalloproteinase-13 catalytic domain (“MMP-13CD”); test: Fluorigenic peptide-1 substrate based assay, MMP-13CD, with/without AcNHOH; format: biochemical; settings: IC50 with AcNHOH divided by IC50 without
Marks after values point to notes of the source that are not given here.
test_readout: IC50 Ratio (±)

Recorded results for 2 molecules are shown here.
INSERT INTO results (smi, target_or_system, test_value) VALUES
  ('NS(=O)(=O)c1ccc(-c2ccc([N+](=O)O)cc2)cc1', 'MMP-13 catalytic domain (MMP-13CD) (Homo sapiens)', 0.04),
  ('Cc1c(-c2ccc(-n3ccnc3)cc2)[nH][nH]c1=O', 'MMP-13 catalytic domain (MMP-13CD) (Homo sapiens)', 1.16);

Ask: Output measured IC50 Ratio (±) for this item: Cc1cc(O)nc(SCc2ccc(Cl)cc2)n1
Result: 0.07^a

###

target: MMP-13 (Homo sapiens); assay: TPL (thiopeptolide) assay, MMP-13 (without and with AH); type: biochemical; conditions: TPL assay, without AH; read-out: IC50 MMP-13
Where a name gives a salt, the structure may show the parent alone.
Assign labels as follows, please: YES for IC50 below 2000 nM; NO for IC50 equal to or exceeding 2000 nM.

Sample answers from the record:
INSERT INTO results (molecule, target_or_system, category) VALUES
  ('O=C(NC[C@H]1CC[C@H](C(=O)O)CC1)c1cc(-c2ccc(-c3ccncc3)cc2)ns1 [Example 8, Potassium Salt]', 'MMP-13 (Homo sapiens)', 'YES'),
  ('COc1ccc(CC#Cc2ccc3c(c2)c(=O)n(Cc2ccc(C(=O)O)cc2)c(=O)n3C)cc1 [Example 2]', 'MMP-13 (Homo sapiens)', 'YES'),
  ('CN1c2ccc(C3CN(Cc4ccccc4)C(=O)CO3)cc2CS1(=O)=O (centres unmarked) [Example 7]', 'MMP-13 (Homo sapiens)', 'NO');

Ask: Strictly below 2000 nM in IC50? COc1cccc(COC(=O)c2cc3c(=O)n(Cc4ccc(-c5nn[nH]n5)cc4)c(=O)[nH]c3s2)c1 [Example 3]
Result: YES

Ask: Strictly below 2000 nM in IC50? O=C(O)c1ccc(CNC(=O)c2cc(-c3ccc(OC(F)(F)F)cc3)cs2)cc1 [Example 5]
Result: YES

###

target: UniProt P39900; assay: TPL (thiopeptolide) assay, MMP-12 (without and with AH); format: biochemical; conditions: TPL assay, without AH; read-out: IC50 MMP-12
Sequence (P39900 106-470): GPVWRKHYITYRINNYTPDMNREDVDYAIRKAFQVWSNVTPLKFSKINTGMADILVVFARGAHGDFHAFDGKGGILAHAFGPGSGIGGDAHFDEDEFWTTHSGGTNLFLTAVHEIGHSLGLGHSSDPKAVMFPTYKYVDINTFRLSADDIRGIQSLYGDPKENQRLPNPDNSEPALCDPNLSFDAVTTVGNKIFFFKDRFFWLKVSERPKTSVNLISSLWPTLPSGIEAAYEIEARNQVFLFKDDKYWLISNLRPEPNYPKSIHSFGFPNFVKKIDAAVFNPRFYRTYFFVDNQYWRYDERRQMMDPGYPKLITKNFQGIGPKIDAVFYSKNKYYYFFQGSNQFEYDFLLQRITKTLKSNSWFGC
pIC50: −log10 of the molar value.
test_readout: pIC50

Recorded results for 2 compounds are shown here.
INSERT INTO measurements (smi, test_readout, test_value) VALUES
  ('COc1ccc(CC#Cc2ccc3c(c2)c(=O)n(Cc2ccc(C(=O)O)cc2)c(=O)n3C)cc1', 'pIC50', '< 4.00'),
  ('O=C(O)c1ccc(CNC(=O)c2cc(-c3ccc(OC(F)(F)F)cc3)cs2)cc1', 'pIC50', '< 6.40');

Next compound, pIC50 to be filled in.
Ask: Output measured pIC50 for this item: COc1ccc(CC#Cc2ccc3ncn(Cc4ccc(C(=O)O)cc4)c(=O)c3c2)cc1
Result: < 4.52
